Data provenance is ChEMBL document CHEMBL1155865.

system: Human immunodeficiency virus 1; test: Antiviral activity against HIV1 with wild type reverse transcriptase in MT4 cells assessed as inhibition of virus-induced cytopathic effect; assay type: functional, organism-based; details: Human immunodeficiency virus 1, MT4

- Compound: "CC1OC(Cc2ccc(Cl)c(Oc3cc(Cl)cc(C#N)c3)c2F)=NNC1=O (centres undefined)"
  Units of measure: "nM"
  EC50: 5
- Compound: "Cn1c(Cc2ccc(Br)c(Oc3cc(Cl)cc(C#N)c3)c2F)n[nH]c1=O"
  Units of measure: "nM"
  EC50: 2
- Compound: "C[C@H]1CC(Cc2ccc(Cl)c(Oc3cc(Cl)cc(C#N)c3)c2F)=NNC1=O"
  Units of measure: "nM"
  EC50: 32
- Compound: "Cc1ccc(Cc2n[nH]c(=O)n2C)c(F)c1Oc1cc(Cl)cc(C#N)c1"
  Units of measure: "nM"
  EC50: 2
